Origin of measurements: patent US6355799B1

- System: barnyardgrass (Echinochloa crus-galli, ECHCG)
- Test description: Post-emerge test, greenhouse herbicide activity screening
- Assay type: in vivo
- Condition label: post-emerge, 63 g ai/ha, 14 days after application, rating scale 0-100
Readout: phytotoxicity rating ECHCG
Please state the value as a number alone, without comment.

Query: phytotoxicity rating ECHCG; subject: `COc1c(Cl)cc(F)c(-n2c(=O)cc(C(F)(F)F)n(C)c2=O)c1NC(=O)c1ccc(F)cc1F`
30

Query: phytotoxicity rating ECHCG; subject: `COc1c(Cl)cc(F)c(-n2c(=O)cc(C(F)(F)F)n(C)c2=O)c1NC(=O)c1ccc(CCl)cc1`
10

Query: phytotoxicity rating ECHCG; subject: `CCOC(=O)C(=O)Nc1c(OC)c(Cl)cc(F)c1-n1c(=O)cc(C(F)(F)F)n(C)c1=O`
0

Query: phytotoxicity rating ECHCG; subject: `COc1c(Cl)cc(F)c(-n2c(=O)cc(C(F)(F)F)n(C)c2=O)c1NC(=O)c1cccc(F)c1F`
0

Query: phytotoxicity rating ECHCG; subject: `COc1c(Cl)cc(F)c(-n2c(=O)cc(C(F)(F)F)n(C)c2=O)c1NC(=O)OCc1ccccc1[N+](=O)[O-]`
20

Query: phytotoxicity rating ECHCG; subject: `COc1c(Cl)cc(F)c(-n2c(=O)cc(C(F)(F)F)n(C)c2=O)c1N(C(=O)c1ccc([N+](=O)[O-])cc1)C(=O)c1ccc([N+](=O)[O-])cc1`
0

Query: phytotoxicity rating ECHCG; subject: `COc1c(Cl)cc(F)c(-n2c(=O)cc(C(F)(F)F)n(C)c2=O)c1NC(=O)c1ccc(F)c(F)c1`
0

Query: phytotoxicity rating ECHCG; subject: `COc1c(Cl)cc(F)c(-n2c(=O)cc(C(F)(F)F)n(C)c2=O)c1NC(=O)c1cc([N+](=O)[O-])cc([N+](=O)[O-])c1`
0

Query: phytotoxicity rating ECHCG; subject: COc1c(Cl)cc(F)c(-n2c(=O)cc(C(F)(F)F)n(C)c2=O)c1NC(=O)OC(c1ccccc1)C1CC1 (stereo not shown)
20

Query: phytotoxicity rating ECHCG; subject: `COc1c(Cl)cc(F)c(-n2c(=O)cc(C(F)(F)F)n(C)c2=O)c1NC(=O)OCc1ccc(F)c(F)c1`
50

Query: phytotoxicity rating ECHCG; subject: `Cc1ccc(-n2c(=O)cc(C(F)(F)F)n(C)c2=O)c(NC(=O)c2ccc3ccccc3c2)c1`
50

Query: phytotoxicity rating ECHCG; subject: `COc1c(Cl)cc(F)c(-n2c(=O)cc(C(F)(F)F)n(C)c2=O)c1NC(=O)OCc1ccc(C)c(C)c1`
10

Query: phytotoxicity rating ECHCG; subject: `COc1c(Cl)cc(F)c(-n2c(=O)cc(C(F)(F)F)n(N)c2=O)c1NC(=O)c1ccc(F)cc1F`
0

Query: phytotoxicity rating ECHCG; subject: `Cn1c(C(F)(F)F)cc(=O)n(-c2c(F)cc(Cl)c(OCC#N)c2NC(=O)CCc2ccccc2)c1=O`
10

Query: phytotoxicity rating ECHCG; subject: `COc1c(Cl)cc(F)c(-n2c(=O)cc(C(F)(F)F)n(C)c2=O)c1NC(=O)c1ccc(Cl)cc1`
0

Query: phytotoxicity rating ECHCG; subject: `COC(=O)N(C(=O)OC)c1c(OC)c(Cl)cc(F)c1-n1c(=O)cc(C(F)(F)F)n(C)c1=O`
0

Query: phytotoxicity rating ECHCG; subject: `COc1c(Cl)cc(F)c(-n2c(=O)cc(C(F)(F)F)n(C)c2=O)c1NC(=O)c1cccnc1`
0

Query: phytotoxicity rating ECHCG; subject: `COc1c(Cl)cc(F)c(-n2c(=O)cc(C(F)(F)F)n(C)c2=O)c1NC(=O)Oc1ccccc1C(C)(C)C`
0

Query: phytotoxicity rating ECHCG; subject: `Cn1c(C(F)(F)F)cc(=O)n(-c2c(F)cc(Cl)c(OC(F)F)c2NC(=O)c2ccc3ccccc3c2)c1=O`
10

Query: phytotoxicity rating ECHCG; subject: `COc1c(Cl)cc(F)c(-n2c(=O)cc(C(F)(F)F)n(C)c2=O)c1NC(=O)OCc1cc(F)ccc1F`
60

Query: phytotoxicity rating ECHCG; subject: `COc1c(Cl)cc(F)c(-n2c(=O)cc(C(F)(F)F)n(C)c2=O)c1NC(=O)OCc1c(F)c(F)c(F)c(F)c1F`
20

Query: phytotoxicity rating ECHCG; subject: `COc1c(Cl)cc(F)c(-n2c(=O)cc(C(F)(F)F)n(C)c2=O)c1N(C(=O)C=Cc1ccccc1Cl)C(=O)C=Cc1ccccc1Cl`
0

###

What Post-emerge Herbicidal Activity DIGSA was measured for each of the following?
- Test system: large crabgrass (Digitaria sanguinalis, DIGSA)
- Test description: Post-emerge test, greenhouse herbicide activity screening
- Format: in vivo
- Condition label: post-emerge, 63 g ai/ha, phytotoxicity rating 0-100 at 14 days after application
Please state the value as a number alone, without comment.

Provide value of Post-emerge Herbicidal Activity DIGSA for this record tested with large crabgrass (Digitaria sanguinalis, DIGSA): O=C(Nc1cc(Cl)ccc1N1C(=O)C2CCCCN2C1=O)c1ccc2ccccc2c1 (stereo not drawn)
10

Provide value of Post-emerge Herbicidal Activity DIGSA for this record tested with large crabgrass (Digitaria sanguinalis, DIGSA): `COc1c(Cl)cc(F)c(-n2c(=O)n3n(c2=O)CCCC3)c1NC(=O)c1ccc(F)cc1F`
10

Provide value of Post-emerge Herbicidal Activity DIGSA for this record tested with large crabgrass (Digitaria sanguinalis, DIGSA): `Cc1c(Cl)cc(F)c(-n2c(=O)cc(C(F)(F)F)n(C)c2=O)c1NC(=O)OCc1ccc([N+](=O)[O-])cc1`
10

###

- Test system: lambsquarters (Chenopodium album, CHEAL)
- Test description: Post-emerge test, greenhouse herbicide activity screening
- Type: in vivo
- Condition label: post-emerge, 250 g ai/ha, 14 days after application, rating scale 0-100
Readout: phytotoxicity rating CHEAL
Please state the value as a number alone, without comment.

Query: phytotoxicity rating CHEAL; subject: `COc1ccc(COC(=O)Nc2c(OC)c(Cl)cc(F)c2-n2c(=O)cc(C(F)(F)F)n(C)c2=O)cc1`
100

Query: phytotoxicity rating CHEAL; subject: `CCCCCC(=O)Nc1c(OC)c(Cl)cc(F)c1-n1c(=O)cc(C(F)(F)F)n(C)c1=O`
90

Query: phytotoxicity rating CHEAL; subject: `COc1c(Cl)cc(F)c(-n2c(=O)cc(C(F)(F)F)n(C)c2=O)c1NC(=O)c1ccc(Cl)c(Cl)c1`
100

Query: phytotoxicity rating CHEAL; subject: `Cc1c(Cl)cc(F)c(-n2c(=O)cc(C(F)(F)F)n(C)c2=O)c1NC(=O)OCCc1ccccc1`
100

Query: phytotoxicity rating CHEAL; subject: `Cc1ccc(-n2c(=O)cc(C(F)(F)F)n(C)c2=O)c(NC(=O)c2ccc3ccccc3c2)c1`
98

Query: phytotoxicity rating CHEAL; subject: `Cn1c(C(F)(F)F)cc(=O)n(-c2ccc(C(N)=S)cc2NC(=O)c2ccc3ccccc3c2)c1=O`
70

Query: phytotoxicity rating CHEAL; subject: `COc1c(Cl)cc(F)c(-n2c(=O)cc(C(F)(F)F)n(C)c2=O)c1NC(=O)c1c(F)cccc1F`
100

Query: phytotoxicity rating CHEAL; subject: `COc1c(Cl)cc(F)c(-n2c(=O)cc(C(F)(F)F)n(C)c2=O)c1NC(N)=O`
60

Query: phytotoxicity rating CHEAL; subject: `COc1c(Cl)cc(F)c(-n2c(=O)cc(C(F)(F)F)n(C)c2=O)c1NC(=O)c1cccc(Cl)c1`
100

Query: phytotoxicity rating CHEAL; subject: `CCc1ccc(COC(=O)Nc2c(OC)c(Cl)cc(F)c2-n2c(=O)cc(C(F)(F)F)n(C)c2=O)cc1`
100

Query: phytotoxicity rating CHEAL; subject: `Cn1c(C(F)(F)F)cc(=O)n(-c2ccc(Cl)cc2NC(=O)Oc2ccccc2)c1=O`
95

Query: phytotoxicity rating CHEAL; subject: `COc1c(Cl)cc(F)c(-n2c(=O)cc(C(F)(F)F)n(C)c2=O)c1NC(=O)OCc1ccc(OC(F)(F)F)cc1`
100

Query: phytotoxicity rating CHEAL; subject: `COc1c(Cl)cc(F)c(-n2c(=O)cc(C(F)(F)F)n(C)c2=O)c1N(C(=O)C=Cc1ccccc1Cl)C(=O)C=Cc1ccccc1Cl`
50

Query: phytotoxicity rating CHEAL; subject: `Nn1c(C(F)(F)F)cc(=O)n(-c2c(F)cc(Cl)c(O)c2NC(=O)c2ccc3ccccc3c2)c1=O`
50

###

What Post-emerge Herbicidal Activity CORN was measured for each of the following?
- Tested on: field corn (Zea mays L., var. Dekalb 535, CORN)
- Test description: Post-emerge test, crop safety
- Type: in vivo
- Condition label: post-emerge, 250 g ai/ha, crop damage rating 0-100 at 14 days after application

Query: Post-emerge Herbicidal Activity CORN; subject: COc1ccc(COC(=O)Nc2c(C)c(Cl)cc(F)c2-n2c(=O)cc(C(F)(F)F)n(C)c2=O)cc1OC [4-63]
30

Query: Post-emerge Herbicidal Activity CORN; subject: Nc1c(O)c(Cl)cc(F)c1N1C(=O)C2CCCCN2C1=S (single isomer, unassigned) [12-2]
100

Query: Post-emerge Herbicidal Activity CORN; subject: Cc1c(Cl)cc(F)c(-n2c(=O)cc(C(F)(F)F)n(C)c2=O)c1NC(=O)OCc1ccc(Cl)cc1Cl [4-62]
45

Query: Post-emerge Herbicidal Activity CORN; subject: Cc1c(Cl)cc(F)c(-n2c(=O)cc(C(F)(F)F)n(C)c2=O)c1NC(=O)SCc1ccccc1 [4-66]
60

Query: Post-emerge Herbicidal Activity CORN; subject: Nc1c(OC2CCCC2)c(Cl)cc(F)c1N1C(=O)C2=C(CCCC2)C1=O [Compound 8-5]
0
